These entries and their values trace back to patent US8304238B2.

Test system: alveolar type II epithelial cells (T2 cells)
TEST: Binding strength (affinity) of immobilized LN peptides to T2 cells relative to immobilized FIB-1 (mixed immobilization, free FIB-1 competition)
Type: cell-based
Design: key: AA: extremely strongly binding/adhering; A: strongly binding/adhering; B: intermediately binding/adhering (as the same degree as FIB-1 peptide); C: more weakly binding/adhering than FIB-1 peptide
EXPERIMENTAL CONDITIONS: classification relative to FIB-1 peptide
Procedure: Therefore, the amount of FIB-1 peptide was set at 0.25 mg/ml, and AG73 peptide was mixed therewith, while changing its concentration ratio, from 1/1.250 of FIB-1 in an amount which is 0.20 μg/ml, to ½ of FIB-1 in an amount which is 0.125 mg/ml, and the mixture was immobilized on a well wherein a hydrophobic binding-adsorptive polymer MMAC was coated. […]
Where no end group is shown, it is not given here.
MEASURED QUANTITY: Binding strength to T2 cells, Comprehensive evaluation

For orientation, consider the following solved cases.
# RESIDUE STRING, RECORDED VALUE
rows = [
    ("GNSTISIRAPVY", "B"),
    ("KNRLTIELEVRT", "C"),
    ("KNSFMALYLSKG", "B"),
    ("TLQLQEGRLHFM", "C"),
    ("YAVTGRGDSPAS [reference compound]", "B"),
    ("KPRLQFSLDIQT", "A"),
]

response.value for `RNRLHLSMLVRP` (field: Binding strength to T2 cells, Comprehensive evaluation) = C

So for `GPLPSYLQFVGI` , the logged Binding strength to T2 cells, Comprehensive evaluation turned out to be B

Notebook: `VKTEYIKRKAFM` , Binding strength to T2 cells, Comprehensive evaluation read as C

Record `TLFLAHGRLVFM` . Reported Binding strength to T2 cells, Comprehensive evaluation: A

Per the record, `RKRLQVQLSIRT` has Binding strength to T2 cells, Comprehensive evaluation of AA

Note to self: Binding strength to T2 cells, Comprehensive evaluation recorded for `GEKSQFSIRLKT` was C

Please fill in: Binding strength to T2 cells, Comprehensive evaluation reported for `LQQRRSVLRTKI` = C

For record `LVLFLNHGHFVA` the listed Binding strength to T2 cells, Comprehensive evaluation is B
